- System: WiDr
- TEST_SUMMARY: Inhibition of cell growth in drug resistant WiDr colon cell line
- Format: functional, cell-based
- EXPERIMENTAL_CONDITIONS: Homo sapiens
ENDPOINT: IC50 (µM)
Respond numerically; units are µM and should not be typed.

Some entries whose results are on file:
COMPOUND	MEASUREMENT_UNITS	IC50
N#CC1CN1C(=O)Nc1ccc(F)cc1 (centres undefined)	µM	9
CCOC(=O)c1ccc(NC(=O)N2CC2C#N)cc1 (centres undefined)	µM	4.2
N#CC1CN1C(=O)Nc1ccccc1 (centres undefined)	µM	12
N#CC1CN1C(=O)NC1CCCCC1 (centres undefined)	µM	12

**Q:** # lookup: IC50 of N#CC1CN1C(=O)NCc1ccccc1 (centres undefined)
**A:** 10

**Q:** Moving on to N#CC1CN1C(=O)Nc1ccc([N+](=O)[O-])cc1 (centres undefined)
**A:** 3.7

**Q:** Moving on to N#CC1CN1C(=O)Nc1ccc(Cl)c(Cl)c1 (centres undefined)
**A:** 14
